# System: Candida albicans
# assay: Compound was evaluated for inhibition of transport of trimethionine in Candida albicans WD 18-4
# Format: functional
# Design: concentration or dose not given beside the values
recordedMetric: Inhibition (%)

- O=C(O)CNC(=O)CNC(=O)c1cc(O)nc(O)n1: 0
- CC(C)C[C@H](NC(=O)c1nc(O)nc(O)c1F)C(=O)O: 0
- CC(C)CC(NC(=O)C(CC(C)C)NC(=O)c1cc(O)nc(O)n1)C(=O)O (stereo not given): 67
- CC(C)C[C@H](NC(=O)[C@H](CC(C)C)NC(=O)c1nc(O)nc(O)c1F)C(=O)O: 40
- COC(=O)[C@H](CCSC)NC(=O)[C@H](CCSC)NC(=O)c1cc(O)nc(O)n1: 0

Ref: ChEMBL document CHEMBL1121495
